Every entry's value here was drawn from patent US20180111972A1.

Listed binders paired with reported EC50 (read off the curve)
system-name: T1, human VEGFR on human umbilical vein endothelial cells (HUVECs) (human, UniProt P35968 20-1356)
T1 construct: The phosphorylation blots on these cells detect VEGFR2
T1 sequence (P35968 20-1356 limits assumed): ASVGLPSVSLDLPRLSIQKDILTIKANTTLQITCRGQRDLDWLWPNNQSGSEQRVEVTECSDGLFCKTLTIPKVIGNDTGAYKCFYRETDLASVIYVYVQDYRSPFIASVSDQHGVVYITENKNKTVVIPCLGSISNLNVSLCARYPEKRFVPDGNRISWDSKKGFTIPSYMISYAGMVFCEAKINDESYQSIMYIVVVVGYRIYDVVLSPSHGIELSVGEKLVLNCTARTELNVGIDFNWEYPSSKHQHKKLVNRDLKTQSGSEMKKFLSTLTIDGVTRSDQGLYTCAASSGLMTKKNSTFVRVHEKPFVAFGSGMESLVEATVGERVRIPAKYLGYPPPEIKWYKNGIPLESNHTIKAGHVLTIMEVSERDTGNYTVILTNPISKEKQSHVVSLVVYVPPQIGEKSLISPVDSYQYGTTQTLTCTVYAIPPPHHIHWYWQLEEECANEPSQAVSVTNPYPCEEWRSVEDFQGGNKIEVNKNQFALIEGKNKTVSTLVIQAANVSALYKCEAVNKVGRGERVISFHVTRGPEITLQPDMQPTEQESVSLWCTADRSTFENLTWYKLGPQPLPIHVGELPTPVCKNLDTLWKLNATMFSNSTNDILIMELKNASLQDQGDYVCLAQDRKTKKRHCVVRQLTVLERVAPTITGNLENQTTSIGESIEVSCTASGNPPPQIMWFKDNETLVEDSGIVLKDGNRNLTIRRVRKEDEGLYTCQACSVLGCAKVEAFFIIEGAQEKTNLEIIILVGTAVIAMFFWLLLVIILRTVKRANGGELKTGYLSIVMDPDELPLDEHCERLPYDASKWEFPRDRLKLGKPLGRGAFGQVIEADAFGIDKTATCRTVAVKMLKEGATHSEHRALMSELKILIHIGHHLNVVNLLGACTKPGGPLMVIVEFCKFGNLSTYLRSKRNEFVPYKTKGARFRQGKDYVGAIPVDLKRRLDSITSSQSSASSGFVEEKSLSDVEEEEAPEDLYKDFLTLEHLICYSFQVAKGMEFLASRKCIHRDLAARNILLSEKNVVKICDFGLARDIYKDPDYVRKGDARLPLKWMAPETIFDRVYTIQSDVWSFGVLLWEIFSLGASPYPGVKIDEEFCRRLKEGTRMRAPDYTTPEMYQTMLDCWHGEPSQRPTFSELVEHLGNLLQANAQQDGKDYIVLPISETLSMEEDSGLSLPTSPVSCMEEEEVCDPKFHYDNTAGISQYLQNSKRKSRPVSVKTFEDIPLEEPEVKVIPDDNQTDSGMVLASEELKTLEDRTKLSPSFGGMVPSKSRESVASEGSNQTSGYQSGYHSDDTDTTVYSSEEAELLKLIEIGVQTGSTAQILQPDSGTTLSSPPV
assay-protocol: flow cytometry titration of the soluble FLAG-tagged protein on HUVECs, anti-FLAG detection

>  <binder>
scVEGFwt, single-chain version of VEGF-A, soluble, FLAG and hexahistidine tags (ligand, Expressed in Pichia pastoris GS115; also called single-chain VEGF-A) DYKDDDDKEVVKFMDVYQRSYCHPIETLVDIFQEYPDEIEYIFKPSCVPLMRCGGCCNDEGLECVPTEESNITMQIMRIKPHQGQHIGEMSFLQHNKCECRPKKDGSTSGSGKSSEGKGEVVKFMDVYQRSYCHPIETLVDIFQEYPDEIEYIFKPSCVPLMRCGGCCNDEGLECVPTEESNITMQIMRIKPHQGQHIGEMSFLQHNKCECRPKKDHHHHHH

>  <EC50 (read off the curve)>
~10 nM

$$$$

get_value(item= PV6 PDGF/VEGF chimera, soluble, N-terminal FLAG and C-terminal hexahistidine tags (designed binder, Secreted from S. cerevisiae YVH10 and treated with Endo Hf; also called soluble PV6) DYKDDDDKIAEPAMIAECHPIETLVDIFQEYPDEIEYIFKPSCVPLMRCGGCCNNRNVQCRPTEESNITMQIMRIKPHQGQHIGEMSFLQHNKCKCETVAAGSTSGSGKSSEGKGEVVKFMDVYQRSYCKTRTEVFEISRRLIDRTNANFLVWPPCVEVQRCSGCCNDEGLECVPTQVQLRPVQVRKIEIVRKKPIFKKATVTLEDHLACKCRPKKDHHHHHH , readout=EC50 (read off the curve)) returns ~10 nM

get_value(item= PVAM-S (PV R32A), soluble, FLAG and hexahistidine tags (designed binder, Secreted from S. cerevisiae YVH10 and treated with Endo Hf) DYKDDDDKIAEPAMIAECHPIETLVDILQEYPDEIGYIFKPSCVPLMRCGGCCNNRNVQCRPTEESNITMQIMRIKPHRGQHIGEMSFLQHNKCRCETVAAGSTSGSGKSSEGKGEVVKFMDVYQRSYCKTRTEVFEISRRLIDATNANFLVWPPCVEVQRCSGCCNHEGLECVPTQVQLRPVQVRKIEFVRKKPIFKKATVTLEDHLACECRPKKDHHHHHH , readout=EC50 (read off the curve)) returns ~0.7 nM

get_value(item= PVGS, soluble, FLAG and hexahistidine tags (designed binder, Secreted from S. cerevisiae YVH10 at 20 C and treated with Endo Hf) DYKDDDDKIAEPAMIAECHPIETLVDILQEYPDEIGYIFKPSCVPLMRCGGCCNNRNVQCRPTEESNITMQIMRIKPHRGQHIGEMSFLQHNKCRCETVAAGGGGSGGGGSGGGGSGGGGSEVVKFMDVYQRSYCKTRTEVFEISRRLIDATNANFLVWPPCVEVQRCSGCCNHEGLECVPTQVQLRPVQVRKIEFVRKKPIFKKATVTLEDHLACECRPKKDHHHHHH , readout=EC50 (read off the curve)) returns ~0.8 nM
